# test method notes: Extraction ratio in human liver microsomes at 1 uM up to 20 mins by LC-MS/MS analysis
# Format: ADME
# applied conditions: read-out: ERH
value kind: hepatic extraction ratio at 20 min, 1 µM

# annotated cases, reported hepatic extraction ratio at 20 min, 1 µM shown
# line notation, hepatic extraction ratio at 20 min, 1 µM
data = [
    ("CCc1ncccc1Oc1cc(Sc2ccccn2)cnc1NC(=O)NC", 0.75),
    ("CNC(=O)Nc1ncc(SCCCO)cc1Oc1cccnc1C", 0.15),
    ("CCn1nccc1Oc1cc(Sc2ccccn2)cnc1NC(=O)NC", 0.45),
]

Pending molecule:
QUERY: Endpoint output: hepatic extraction ratio at 20 min, 1 µM of CNC(=O)Nc1ncc(SC2CCN(S(C)(=O)=O)CC2)cc1Oc1cccnc1C . Value?
RESULT: 0.5

---

# assayed system: Hexokinase-4 (Homo sapiens, UniProt P35557)
# Sequence (P35557 whole entry, the tested form may be a part, canonical isoform): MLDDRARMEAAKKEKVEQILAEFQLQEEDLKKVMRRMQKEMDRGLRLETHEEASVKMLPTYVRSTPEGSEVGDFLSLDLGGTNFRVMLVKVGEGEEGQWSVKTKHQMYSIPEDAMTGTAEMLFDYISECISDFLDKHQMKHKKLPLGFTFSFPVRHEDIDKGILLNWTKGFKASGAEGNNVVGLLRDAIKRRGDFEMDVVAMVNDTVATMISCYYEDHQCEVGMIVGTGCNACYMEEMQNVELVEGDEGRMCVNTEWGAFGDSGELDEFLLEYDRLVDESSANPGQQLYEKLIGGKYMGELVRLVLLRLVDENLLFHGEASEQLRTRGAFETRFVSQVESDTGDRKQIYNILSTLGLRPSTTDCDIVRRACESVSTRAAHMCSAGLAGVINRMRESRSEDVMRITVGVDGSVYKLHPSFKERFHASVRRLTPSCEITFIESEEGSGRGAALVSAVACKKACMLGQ
# test method notes: Activation of purified human glucokinase isoform 3 (13 to 466 aa) using 5 mM glucose by spectrophotometry in presence of NAD+ and glucose 6-phosphate dehydrogenase
value kind: EC50

# annotated cases, reported EC50 shown
# line notation, EC50
measured = [
    ("CCc1ncccc1Oc1cc(Sc2ccccn2)cnc1NC(C)=O", "> 50 µM"),
    ("CCc1ncccc1Oc1cc(Sc2ccccn2)cnc1NC(=O)NC(C)C", "> 50 µM"),
]

Pending compound:
QUERY: Endpoint output: EC50 of CCOC(=O)Nc1ncc(Sc2ccccn2)cc1Oc1cccnc1CC . Value?
RESULT: > 50 µM
